Catalogue of inhibition readings, one per entry.
TARGET: Cyclooxygenase (Homo sapiens, UniProt P35354+P23219)
TEST_DETAILS: Inhibitory activity against Prostaglandin G/H synthase at 1 uM concentration
Format: protein assay

[
  {
    "STRUCTURE_SMILES": "CC(C)(C)c1cc(/C=C/c2ccccc2C(=O)O)cc(C(C)(C)C)c1O",
    "inhibition / %": 21
  },
  {
    "STRUCTURE_SMILES": "CCOC(=O)/C(=C\\c1cc(C(C)(C)C)c(O)c(C(C)(C)C)c1)c1cccnc1",
    "inhibition / %": 54
  },
  {
    "STRUCTURE_SMILES": "CC(C)(C)c1cc(C(=O)/C=C/c2ccsc2)cc(C(C)(C)C)c1O",
    "inhibition / %": 73
  },
  {
    "STRUCTURE_SMILES": "CC(C)(C)c1cc(/C=C/c2ccccc2)cc(C(C)(C)C)c1O",
    "inhibition / %": 34
  },
  {
    "STRUCTURE_SMILES": "Oc1ccc(/C=C/c2cccnc2)cc1",
    "inhibition / %": 28
  },
  {
    "STRUCTURE_SMILES": "Cc1ccc(/C=C/c2cc(C(C)(C)C)c(O)c(C(C)(C)C)c2)cc1",
    "inhibition / %": 12
  },
  {
    "STRUCTURE_SMILES": "CC(C)(C)c1cc(/C=C/C(=O)c2ccsc2)cc(C(C)(C)C)c1O",
    "inhibition / %": 56
  },
  {
    "STRUCTURE_SMILES": "CC(C)(C)c1cc(/C=C/c2ccc(Cl)c(Cl)c2)cc(C(C)(C)C)c1O",
    "inhibition / %": -16
  },
  {
    "STRUCTURE_SMILES": "CC(C)(C)c1cc(/C=C/c2ccc(Cl)cc2)cc(C(C)(C)C)c1O",
    "inhibition / %": 31
  },
  {
    "STRUCTURE_SMILES": "CC(C)(C)c1cc(/C=C/c2ccc[n+]([O-])c2)cc(C(C)(C)C)c1O",
    "inhibition / %": 24
  }
]

---

Catalogue of inhibition readings, one per entry.
TARGET: Cyclooxygenase (Homo sapiens, UniProt P35354+P23219)
TEST_DETAILS: Inhibitory activity against Prostaglandin G/H synthase at 10 uM concentration
Assay type: protein assay
OBSERVED_PROPERTY: inhibition (%)

[
  {
    "STRUCTURE_SMILES": "CC(C)(C)c1cc(/C=C/C(=O)c2ccsc2)cc(C(C)(C)C)c1O",
    "TARGET": "Cyclooxygenase (Homo sapiens, UniProt P35354+P23219)",
    "OBSERVED_PROPERTY": "inhibition",
    "RESULT": 80
  },
  {
    "STRUCTURE_SMILES": "CC(C)(C)c1cc(/C=C/c2ccccc2)cc(C(C)(C)C)c1O",
    "TARGET": "Cyclooxygenase (Homo sapiens, UniProt P35354+P23219)",
    "OBSERVED_PROPERTY": "inhibition",
    "RESULT": 79
  },
  {
    "STRUCTURE_SMILES": "CCOC(=O)/C(=C\\c1cc(C(C)(C)C)c(O)c(C(C)(C)C)c1)c1cccnc1",
    "TARGET": "Cyclooxygenase (Homo sapiens, UniProt P35354+P23219)",
    "OBSERVED_PROPERTY": "inhibition",
    "RESULT": 78
  }
]

---

Catalogue of inhibition readings, one per entry.
TARGET: Polyunsaturated fatty acid 5-lipoxygenase (Homo sapiens)
TEST_DETAILS: Inhibitory activity against 5-lipoxygenase at 10 uM concentration
OBSERVED_PROPERTY: inhibition (%)

[
  {
    "STRUCTURE_SMILES": "CC(C)(C)c1cc(/C=C/C(=O)c2cccs2)cc(C(C)(C)C)c1O",
    "OBSERVED_PROPERTY": "inhibition",
    "RESULT": 84
  },
  {
    "STRUCTURE_SMILES": "CC(C)(C)c1cc(/C=C/c2ccc[n+]([O-])c2)cc(C(C)(C)C)c1O",
    "OBSERVED_PROPERTY": "inhibition",
    "RESULT": 59
  },
  {
    "STRUCTURE_SMILES": "CC(C)(C)c1cc(/C=C/c2ccccc2)cc(C(C)(C)C)c1O",
    "OBSERVED_PROPERTY": "inhibition",
    "RESULT": 14
  }
]
